# Test summary: folding stability dG unfold (combined trypsin and chymotrypsin); higher = more stable
Test readout: folding stability dG unfold (kcal/mol)
// return numeric value only (unit: kcal/mol, not printed)

Look up folding stability dG unfold for this sequence: SAGGSIPAEEIADKLRKEPGIPEDDVEVNVERRPGQVTIDVKMDDPDHPQHRRMKKRAQDALQKLLSAGGSA [r2_3_TrROS] -0.133

I have this sequence here, SAGGSAGGSAGYTVSVSVETETLKYLDPETGELVEEETLVRVTITITPPPPAPPNLPENLSAGGSAGGSAGG [r17_493_TrROS_Hall] , and I need its recorded folding stability dG unfold. 2.65

Report folding stability dG unfold for SAMKKLTEEEIEKLAKELAKEGKVEIKIKVEKKVVKNKNGKKKEVTKVKIEIKAPPEAKKKLEKLKKKLSAG [r14_628_TrROS_Hall] please. 0.359

Fill blank: measured folding stability dG unfold of the sequence SAGGSAGGSAGGTITIPIYLDDKWITITRIELSPPDGKIKIEFTFNNRPREFDIPIPPGASAGGSAGGSAGG [r7_477_TrROS] is ____. 2.36

State the recorded folding stability dG unfold for this entry: SAGGSAGGSKKKLTLTLKVEYVDEETGEKRTVTLTITAESEEEAKAALEELAKKLPPGARIEVSAGGSAGGS [r20_211_TrROS_Hall] 4.21

Please give the measured folding stability dG unfold for this sequence: SMLNPDDPSVPERLVLVIPVPEEAVENGDFEVVRAKVEEAAEELEPLGWRVVSVEFDTETKEARLVLERPSA [r9_75_TrMRF] 3.62

Quick check: folding stability dG unfold of SAGGSAGGSAGMLKTIVIKELTPEAKKALLENPDLPEDAEVPTLVEELTVPVKRTPKGLVSAGGSAGGSAGG [r17_194_JUSTAS] ? -0.398

Reported folding stability dG unfold, sequence SAGGSAGGKPKKVKIKIEITYNKETGVVKIKIEVEVDGKTYTIEIEVKLKPGQTIEELLKKLLESAGGSAGG [r6_20_TrROS_Hall] : ____ 4.46

Which measured folding stability dG unfold value corresponds to SAGGSAGGSAGKKKKKKKKKPPVTLTVEIEIEINGKKYIAKKKVKLNKDGKLEVEVEIYPSAGGSAGGSAGG [r11_555_TrROS_Hall] ? 3.13

Given SAGGKMVKIEITLSPEEIEKIKEKLEEETGLEVEIKVEKNENGEVKLIITFKSEEAAKKALEKLGIESAGGS [r16_172_TrROS_Hall] , state its recorded folding stability dG unfold. 3.42

Need folding stability dG unfold of SAGGSAMTIEIVVPTLEAIEKLAEETGAEVVEVRFFEEEGLVVVRIKVPESKEELLEKIREALGLESAGGSA [r15_118_TrROS_Hall] , thanks. 2.11

What does the record list as folding stability dG unfold for SAGGSAGGSMTFEILPDGKTKTLTLDEAKELILNEVPPDTTVVNLDTGKVISAEEFLKLLGIKVSAGGSAGG [r6_937_JUSTAS] ? 0.998

// folding stability dG unfold lookup, key: SAGGMPIKSKKEAEEFIKKGGAKYLSKTKVKVKGEEKEKEFEVYEFVFKDPKTNKPILVVVPKEYIGSAGGS [r16_271_TrMRF] 0.886

Which folding stability dG unfold value is on record for SAGGSAGGSAKMVIVNITLKNKDGKEFTISIEADPSVIKNIIKKLFNAKINKIEIYPLSEALSAGGSAGGSA [r18_107_TrMRF] ? 2.28
